Molecular target: HDAC2 (Homo sapiens, UniProt Q92769)
Construct: purchased Reaction Biology Corporation (assay run by the CRO)
Sequence (Q92769 whole entry): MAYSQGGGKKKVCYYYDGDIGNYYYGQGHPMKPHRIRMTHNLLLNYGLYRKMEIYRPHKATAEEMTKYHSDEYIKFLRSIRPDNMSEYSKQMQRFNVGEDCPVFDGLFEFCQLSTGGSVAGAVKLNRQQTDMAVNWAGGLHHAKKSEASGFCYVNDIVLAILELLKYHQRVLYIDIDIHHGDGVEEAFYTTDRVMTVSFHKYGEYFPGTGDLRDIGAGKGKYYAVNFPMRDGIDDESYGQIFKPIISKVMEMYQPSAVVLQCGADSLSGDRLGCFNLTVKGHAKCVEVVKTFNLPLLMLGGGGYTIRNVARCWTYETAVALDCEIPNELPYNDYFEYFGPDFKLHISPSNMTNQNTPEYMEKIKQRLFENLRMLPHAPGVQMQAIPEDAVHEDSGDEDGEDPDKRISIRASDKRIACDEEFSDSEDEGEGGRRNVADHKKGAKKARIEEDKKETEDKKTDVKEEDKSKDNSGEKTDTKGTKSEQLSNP
Assay: HDAC2 inhibition, full IC50 measurement (Reaction Biology; fluorogenic p53 peptide RHKK(Ac)AMC)
Assay type: biochemical
Settings: Conc. 4.12E-08 M, t1
Peptide text beside a SMILES is read from it.
Quick list: HDAC2 activity raw data (signal) per entry.

COMPOUND | HDAC2 activity raw data (signal)
CCCC[C@H]1NC(=O)[C@H](Cc2ccccc2)NC(=O)[C@H](CCCCCS)NC(=O)[C@@H](CCCNC(=N)N)NC(=O)[C@H](C)NC(=O)[C@@H](CO)NC(=O)[C@@H](C)NC(=O)[C@H](CCCCN)NC1=O [des4.3.1.3, SHA-Phe-dNle-Lys-dAla-dSer-Ala-dArg] (HELM PEPTIDE1{A.[dR].[O=C([C@H](CCCCCS)N[*:1])[*:2]].F.[CCCC[C@@H](N[*:1])C(=O)[*:2]].K.[dA].[dS]}$PEPTIDE1,PEPTIDE1,1:R1-8:R2$$$V2.0) | 1569368
NCCCC[C@H]1NC(=O)[C@H](CCC(N)=O)NC(=O)[C@H](CCC(=O)O)NC(=O)[C@@H]2CCCN2C(=O)[C@H](CC(N)=O)NC(=O)[C@H](CCCCCS)NC(=O)CNC(=O)[C@H](Cc2c[nH]c3ccccc23)NC1=O [des1.1.1, SHA-Asn-Pro-Glu-Gln-dLys-Trp-Gly] (HELM PEPTIDE1{E.Q.[dK].W.G.[O=C([C@H](CCCCCS)N[*:1])[*:2]].N.P}$PEPTIDE1,PEPTIDE1,1:R1-8:R2$$$V2.0) | 680634
CC(C)[C@@H]1NC(=O)[C@H](CCCNC(=N)N)NC(=O)[C@@H](CC(=O)O)NC(=O)[C@H](CO)NC(=O)[C@@H](CO)NC(=O)[C@@H](CCC(=O)O)NC(=O)[C@H](Cc2ccc(O)cc2)NC(=O)[C@H](CCCCCS)NC1=O [des4.2.0, SHA-Tyr-dGlu-dSer-Ser-dAsp-Arg-Val] (HELM PEPTIDE1{R.V.[O=C([C@H](CCCCCS)N[*:1])[*:2]].Y.[dE].[dS].S.[dD]}$PEPTIDE1,PEPTIDE1,1:R1-8:R2$$$V2.0) | 1358432
NCCCC[C@@H]1NC(=O)[C@@H]2C[C@@H](O)CN2C(=O)[C@H](CC(N)=O)NC(=O)[C@H](CCCCCS)NC(=O)CNC(=O)[C@H](Cc2c[nH]c3ccccc23)NC(=O)[C@@H](CCCCN)NC(=O)[C@H](CCC(N)=O)NC1=O [des1.1.2, SHA-Asn-Hpr-Lys-Gln-dLys-Trp-Gly] (HELM PEPTIDE1{G.[O=C([C@H](CCCCCS)N[*:1])[*:2]].N.[Hyp].K.Q.[dK].W}$PEPTIDE1,PEPTIDE1,1:R1-8:R2$$$V2.0) | 1007771
N=C(N)NCCC[C@H]1NC(=O)[C@@H]2CCCN2C(=O)[C@H](CO)NC(=O)[C@@H](Cc2c[nH]cn2)NC(=O)[C@H](CCCCCS)NC(=O)[C@H](CCCCN)NC(=O)[C@H](Cc2ccc(O)cc2)NC(=O)[C@H]2CCCN2C(=O)[C@@H](CCC(N)=O)NC1=O [des3.1.0, SHA-dHis-Ser-Pro-dArg-dGln-dPro-Tyr-Lys] (HELM PEPTIDE1{K.[O=C([C@H](CCCCCS)N[*:1])[*:2]].[dH].S.P.[dR].[dQ].[dP].Y}$PEPTIDE1,PEPTIDE1,1:R1-9:R2$$$V2.0) | 715436
CCCC[C@H]1NC(=O)[C@H](CC(=O)O)NC(=O)[C@@H](CO)NC(=O)[C@@H](C)NC(=O)[C@H](CCCCN)NC(=O)[C@@H](CCCCN)NC(=O)[C@H](Cc2ccccc2)NC(=O)[C@H](CCCCCS)NC1=O [des4.3.1.2, SHA-Phe-dLys-Lys-dAla-dSer-Asp-dNle] (HELM PEPTIDE1{D.[CCCC[C@@H](N[*:1])C(=O)[*:2]].[O=C([C@H](CCCCCS)N[*:1])[*:2]].F.[dK].K.[dA].[dS]}$PEPTIDE1,PEPTIDE1,1:R1-8:R2$$$V2.0) | 1743081
CC(C)C[C@H]1NC(=O)[C@H](Cc2c[nH]c3ccccc23)NC(=O)[C@H](CCCCCS)NC(=O)[C@@H](Cc2ccc(O)cc2)NC(=O)[C@@H](C(C)C)NC(=O)[C@H](Cc2c[nH]cn2)NC(=O)CNC(=O)CNC(=O)[C@@H](CO)NC1=O [des2.2.0, SHA-Trp-dLeu-dSer-Gly-Gly-His-dVal-dTyr] (HELM PEPTIDE1{G.G.H.[dV].[dY].[O=C([C@H](CCCCCS)N[*:1])[*:2]].W.[dL].[dS]}$PEPTIDE1,PEPTIDE1,1:R1-9:R2$$$V2.0) | 840443
NCCCC[C@@H]1NC(=O)[C@@H]2CCCN2C(=O)[C@H](CC(N)=O)NC(=O)[C@H](CCCCCS)NC(=O)CNC(=O)[C@H](Cc2c[nH]c3ccccc23)NC(=O)[C@@H](CCCCN)NC(=O)[C@H](CCC(N)=O)NC1=O [des1.1.0, SHA-Asn-Pro-Lys-Gln-dLys-Trp-Gly] (HELM PEPTIDE1{G.[O=C([C@H](CCCCCS)N[*:1])[*:2]].N.P.K.Q.[dK].W}$PEPTIDE1,PEPTIDE1,1:R1-8:R2$$$V2.0) | 943203
CCCC[C@H]1NC(=O)[C@H](Cc2ccccc2)NC(=O)[C@H](CCCCCS)NC(=O)[C@@H](CO)NC(=O)[C@H](CC(=O)O)NC(=O)[C@@H](CO)NC(=O)[C@@H](C)NC(=O)[C@H](CCCCN)NC1=O [des4.3.1.1, SHA-Phe-dNle-Lys-dAla-dSer-Asp-dSer] (HELM PEPTIDE1{D.[dS].[O=C([C@H](CCCCCS)N[*:1])[*:2]].F.[CCCC[C@@H](N[*:1])C(=O)[*:2]].K.[dA].[dS]}$PEPTIDE1,PEPTIDE1,1:R1-8:R2$$$V2.0) | 1853084

----------
Target: HDAC6 (Homo sapiens, UniProt Q9UBN7)
Construct: purchased Reaction Biology Corporation (assay run by the CRO)
Sequence (Q9UBN7 whole entry): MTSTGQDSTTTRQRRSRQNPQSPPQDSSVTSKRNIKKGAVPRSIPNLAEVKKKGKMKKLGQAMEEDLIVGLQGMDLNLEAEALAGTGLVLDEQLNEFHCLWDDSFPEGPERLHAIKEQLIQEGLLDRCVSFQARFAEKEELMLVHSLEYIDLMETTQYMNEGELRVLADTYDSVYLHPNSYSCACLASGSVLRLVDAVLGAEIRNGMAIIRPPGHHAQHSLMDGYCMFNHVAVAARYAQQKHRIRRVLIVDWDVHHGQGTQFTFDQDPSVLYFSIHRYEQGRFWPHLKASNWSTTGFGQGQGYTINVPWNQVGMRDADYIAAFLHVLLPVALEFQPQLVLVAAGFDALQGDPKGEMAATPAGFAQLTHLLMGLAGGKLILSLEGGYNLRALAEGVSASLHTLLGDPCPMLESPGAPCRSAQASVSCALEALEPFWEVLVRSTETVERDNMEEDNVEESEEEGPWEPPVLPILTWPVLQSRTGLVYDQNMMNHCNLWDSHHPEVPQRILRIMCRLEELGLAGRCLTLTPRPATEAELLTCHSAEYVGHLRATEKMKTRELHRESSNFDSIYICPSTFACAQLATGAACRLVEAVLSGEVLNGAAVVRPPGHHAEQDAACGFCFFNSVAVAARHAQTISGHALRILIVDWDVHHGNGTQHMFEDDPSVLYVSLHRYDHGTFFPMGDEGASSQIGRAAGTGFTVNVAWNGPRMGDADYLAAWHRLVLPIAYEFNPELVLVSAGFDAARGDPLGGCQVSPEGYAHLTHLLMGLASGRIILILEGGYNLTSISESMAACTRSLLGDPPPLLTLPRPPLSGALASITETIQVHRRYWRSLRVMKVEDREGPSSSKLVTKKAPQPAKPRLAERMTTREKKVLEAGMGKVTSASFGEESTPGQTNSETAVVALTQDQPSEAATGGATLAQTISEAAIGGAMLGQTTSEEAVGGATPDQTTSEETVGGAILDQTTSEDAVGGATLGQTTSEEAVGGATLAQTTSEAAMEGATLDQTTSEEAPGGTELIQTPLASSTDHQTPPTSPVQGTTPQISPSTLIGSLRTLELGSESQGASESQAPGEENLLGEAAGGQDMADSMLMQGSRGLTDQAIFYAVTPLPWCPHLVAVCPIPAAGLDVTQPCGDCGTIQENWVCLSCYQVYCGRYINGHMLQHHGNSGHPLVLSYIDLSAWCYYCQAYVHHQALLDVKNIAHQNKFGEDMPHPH
Assay: HDAC6 inhibition, full IC50 measurement (Reaction Biology; fluorogenic p53 peptide RHKK(Ac)AMC)
Format: biochemical
Details: Conc. 1.11E-06 M, t1
Description: The assay was performed using 50 μM fluorogenic peptide from p53 residues 379-382 [RHKK(Ac)AMC] in a base reaction buffer of 50 mM Tris-HCl at pH 8.0, 137 mM NaCl, 2.7 mM KCl, 1 mM MgCl2, and freshly added 1 mg/ml BSA and 1% DMSO. […] Peptide concentrations were calculated based on mass of lyophilized peptide and its molecular weight. […]
Peptide text beside a SMILES is read from it.
RECORDED_ENDPOINT: HDAC6 activity raw data (signal)

COMPOUND | RECORDED_ENDPOINT | READING
CCCC[C@H]1NC(=O)[C@H](Cc2ccccc2)NC(=O)[C@H](CCCCCS)NC(=O)[C@@H](CCCNC(=N)N)NC(=O)[C@H](CC(=O)O)NC(=O)[C@@H](CO)NC(=O)[C@@H](C)NC(=O)[C@H](CCCCN)NC1=O [des4.3.1, SHA-Phe-dNle-Lys-dAla-dSer-Asp-dArg] (HELM PEPTIDE1{D.[dR].[O=C([C@H](CCCCCS)N[*:1])[*:2]].F.[CCCC[C@@H](N[*:1])C(=O)[*:2]].K.[dA].[dS]}$PEPTIDE1,PEPTIDE1,1:R1-8:R2$$$V2.0) | HDAC6 activity raw data (signal) | 10293
NCCCC[C@H]1NC(=O)[C@H](CCC(N)=O)NC(=O)[C@H](CCC(=O)O)NC(=O)[C@@H]2CCCN2C(=O)[C@H](CC(N)=O)NC(=O)[C@H](CCCCCS)NC(=O)CNC(=O)[C@H](Cc2c[nH]c3ccccc23)NC1=O [des1.1.1, SHA-Asn-Pro-Glu-Gln-dLys-Trp-Gly] (HELM PEPTIDE1{E.Q.[dK].W.G.[O=C([C@H](CCCCCS)N[*:1])[*:2]].N.P}$PEPTIDE1,PEPTIDE1,1:R1-8:R2$$$V2.0) | HDAC6 activity raw data (signal) | 66521
CC(C)C[C@H]1NC(=O)[C@H](Cc2c[nH]c3ccccc23)NC(=O)[C@H](CCCCCS)NC(=O)[C@@H](Cc2ccc(O)cc2)NC(=O)[C@@H](C(C)C)NC(=O)[C@H](Cc2c[nH]cn2)NC(=O)CNC(=O)CNC(=O)[C@@H](CO)NC1=O [des2.2.0, SHA-Trp-dLeu-dSer-Gly-Gly-His-dVal-dTyr] (HELM PEPTIDE1{G.G.H.[dV].[dY].[O=C([C@H](CCCCCS)N[*:1])[*:2]].W.[dL].[dS]}$PEPTIDE1,PEPTIDE1,1:R1-9:R2$$$V2.0) | HDAC6 activity raw data (signal) | 83235
N=C(N)NCCC[C@@H]1NC(=O)[C@@H](CCCNC(=N)N)NC(=O)[C@H]2CCCN2C(=O)[C@@H](Cc2c[nH]cn2)NC(=O)[C@H](Cc2ccc(O)cc2)NC(=O)[C@H](CCCCCS)NC(=O)[C@H](CCc2ccccc2)NC(=O)[C@@H](CO)NC(=O)[C@H](CC(=O)O)NC1=O [des3.3.1, SHA-Tyr-dHis-dPro-dArg-Arg-Asp-dSer-C27] (HELM PEPTIDE1{[O=C([C@H](CCCCCS)N[*:1])[*:2]].Y.[dH].[dP].[dR].R.D.[dS].[O=C([C@H](CCc1ccccc1)N[*:1])[*:2]]}$PEPTIDE1,PEPTIDE1,1:R1-9:R2$$$V2.0) | HDAC6 activity raw data (signal) | 10535
CCCC[C@H]1NC(=O)[C@H](CC(=O)O)NC(=O)[C@@H](CO)NC(=O)[C@@H](C)NC(=O)[C@H](CCCCN)NC(=O)[C@@H](CCCCN)NC(=O)[C@H](Cc2ccccc2)NC(=O)[C@H](CCCCCS)NC1=O [des4.3.1.2, SHA-Phe-dLys-Lys-dAla-dSer-Asp-dNle] (HELM PEPTIDE1{D.[CCCC[C@@H](N[*:1])C(=O)[*:2]].[O=C([C@H](CCCCCS)N[*:1])[*:2]].F.[dK].K.[dA].[dS]}$PEPTIDE1,PEPTIDE1,1:R1-8:R2$$$V2.0) | HDAC6 activity raw data (signal) | 1091316
CC(C)[C@@H]1NC(=O)[C@H](CCCNC(=N)N)NC(=O)[C@@H](CC(=O)O)NC(=O)[C@H](CO)NC(=O)[C@@H](CO)NC(=O)[C@@H](CCC(=O)O)NC(=O)[C@H](Cc2ccc(O)cc2)NC(=O)[C@H](CCCCCS)NC1=O [des4.2.0, SHA-Tyr-dGlu-dSer-Ser-dAsp-Arg-Val] (HELM PEPTIDE1{R.V.[O=C([C@H](CCCCCS)N[*:1])[*:2]].Y.[dE].[dS].S.[dD]}$PEPTIDE1,PEPTIDE1,1:R1-8:R2$$$V2.0) | HDAC6 activity raw data (signal) | 103285
NCCCC[C@@H]1NC(=O)[C@@H]2CCCN2C(=O)[C@H](CC(N)=O)NC(=O)[C@H](CCCCCS)NC(=O)CNC(=O)[C@H](Cc2c[nH]c3ccccc23)NC(=O)[C@@H](CCCCN)NC(=O)[C@H](CCC(N)=O)NC1=O [des1.1.0, SHA-Asn-Pro-Lys-Gln-dLys-Trp-Gly] (HELM PEPTIDE1{G.[O=C([C@H](CCCCCS)N[*:1])[*:2]].N.P.K.Q.[dK].W}$PEPTIDE1,PEPTIDE1,1:R1-8:R2$$$V2.0) | HDAC6 activity raw data (signal) | 22357
C[C@H](O)[C@H]1NC(=O)[C@H](Cc2c[nH]c3ccccc23)NC(=O)[C@H](CCCCCS)NC(=O)[C@H](CCCCN)NC(=O)[C@@H](CC(=O)O)NC(=O)[C@@H](CCCCN)NC(=O)[C@@H](CO)NC(=O)[C@H](CC(N)=O)NC(=O)[C@H](CC(=O)O)NC1=O [des2.1.0, SHA-Trp-dThr-Asp-Asn-dSer-dLys-dAsp-Lys] (HELM PEPTIDE1{D.N.[dS].[dK].[dD].K.[O=C([C@H](CCCCCS)N[*:1])[*:2]].W.[dT]}$PEPTIDE1,PEPTIDE1,1:R1-9:R2$$$V2.0) | HDAC6 activity raw data (signal) | 28172
CCCC[C@H]1NC(=O)[C@H](Cc2ccccc2)NC(=O)[C@H](CCCCCS)NC(=O)[C@@H](CO)NC(=O)[C@H](CC(=O)O)NC(=O)[C@@H](CO)NC(=O)[C@@H](C)NC(=O)[C@H](CCCCN)NC1=O [des4.3.1.1, SHA-Phe-dNle-Lys-dAla-dSer-Asp-dSer] (HELM PEPTIDE1{D.[dS].[O=C([C@H](CCCCCS)N[*:1])[*:2]].F.[CCCC[C@@H](N[*:1])C(=O)[*:2]].K.[dA].[dS]}$PEPTIDE1,PEPTIDE1,1:R1-8:R2$$$V2.0) | HDAC6 activity raw data (signal) | 580651
